targetSystem: human GPR68 (Homo sapiens)
testDescription: GloSensor cAMP assay, proton-mediated Gs-cAMP production at human GPR68
Type: cell-based
testContext: difference of Log(αβ/KB) from that of 1; human GPR68
Listed below: Δ values for each entry.
Give the figure by itself; no unit, no explanation.

Nc1nc(NCc2ccccc2)nc(-c2ccc(F)cc2CO)n1 [Compound 23]
0.15
Nc1nc(NCc2ccc(OC3CC3)cc2)nc(-c2ccccc2CO)n1 [Compound 58]
0.46
Nc1nc(NCCCCc2ccc(Oc3ccccc3)cc2)nc(-c2ccccc2CO)n1 [Compound 66]
0.62
CC(C)Oc1ccc(CNc2nc(N)nc(-c3ccccc3CO)n2)cc1 [Compound 57]
0.38
Nc1nc(NCc2ccc(C(F)(F)F)cc2)nc(-c2ccccc2CO)n1 [Compound 49]
0.79

Read off the recorded Δ for COc1ccc(-c2nc(N)nc(NCc3ccccc3)n2)c(CO)c1 [Compound 30]
−0.34

For the compound Nc1nc(NCCCCc2ccccc2)nc(-c2c(F)cccc2CO)n1 [Compound 74] , give its measured Δ value.
0.03

Supply Δ value. Item: COc1ccc(CNc2nc(N)nc(-c3ccccc3CO)n2)cc1 [Compound 55]
−0.70

Supply measured Δ of Nc1nc(NCCCc2ccccc2)nc(-c2ccccc2CO)n1 [Compound 62] in your reply.
0.80

Supply Δ value. Item: Nc1nc(NCCc2ccccc2)nc(-c2ccccc2CO)n1 [Compound 61]
0.31

Fill in Δ for record Nc1nc(NCc2ccccc2)nc(-c2cccc(F)c2CO)n1 [Compound 22]
−0.45

Please supply the value of reported Δ for the item Nc1nc(NCc2ccccc2)nc(-c2ccccc2CO)n1 [Compound 1]
0.00

Give reported Δ value for Nc1nc(NCc2ccccc2Cl)nc(-c2ccccc2CO)n1 [Compound 44]
0.63

For the compound COc1cccc(-c2nc(N)nc(NCc3ccccc3)n2)c1CO [Compound 29] , give its reported Δ.
−0.45

Dear colleague, please send me the reported Δ for Nc1nc(NCCc2ccc(Oc3ccccc3)cc2)nc(-c2c(F)cccc2CO)n1 [Compound 75] when you can.
0.82

Report Δ, nothing else, for this compound: Nc1nc(NCCCCc2ccccc2)nc(-c2ccccc2CO)n1 [Compound 63]
1.04

###

Examples of compounds with documented Kb follow.
targetSystem: human GPR68 (Homo sapiens)
testDescription: GloSensor cAMP assay, proton-mediated Gs-cAMP production at human GPR68
Type: cell-based
Number plus unit, in that order.

Nc1nc(NCc2ccccc2)nc(-c2ccc(Cl)cc2CO)n1
17.4 µM
COc1ccc(-c2nc(N)nc(NCc3ccccc3)n2)c(CO)c1
75.9 µM
Nc1nc(NCCc2ccccc2)nc(-c2ccccc2CO)n1
31.6 µM
Nc1nc(NCc2ccccc2C(F)(F)F)nc(-c2ccccc2CO)n1
8.91 µM
COc1ccccc1CNc1nc(N)nc(-c2ccccc2CO)n1
102 µM

Identify measured Kb associated with Nc1nc(NCCCCc2ccccc2)nc(-c2c(F)cccc2CO)n1
91.2 µM

For Nc1nc(NCCc2ccccc2)nc(-c2c(F)cccc2CO)n1 , write its Kb.
9.12 µM

Please report Kb for the following compound: Nc1nc(NCc2ccccc2)nc(-c2ccc(F)cc2CO)n1
26.3 µM

Check the records and state Kb for Nc1nc(NCCCCc2ccccc2)nc(-c2ccccc2CO)n1
3.02 µM

Check the records and state Kb for Nc1nc(NCCCc2ccccc2)nc(-c2cc(Cl)ccc2CO)n1
4.47 µM

Give recorded Kb. Nc1nc(NCc2cccc(Cl)c2)nc(-c2ccccc2CO)n1
10.7 µM

###

targetSystem: UniProt:Q8BFQ3
Sequence (Q8BFQ3 whole entry): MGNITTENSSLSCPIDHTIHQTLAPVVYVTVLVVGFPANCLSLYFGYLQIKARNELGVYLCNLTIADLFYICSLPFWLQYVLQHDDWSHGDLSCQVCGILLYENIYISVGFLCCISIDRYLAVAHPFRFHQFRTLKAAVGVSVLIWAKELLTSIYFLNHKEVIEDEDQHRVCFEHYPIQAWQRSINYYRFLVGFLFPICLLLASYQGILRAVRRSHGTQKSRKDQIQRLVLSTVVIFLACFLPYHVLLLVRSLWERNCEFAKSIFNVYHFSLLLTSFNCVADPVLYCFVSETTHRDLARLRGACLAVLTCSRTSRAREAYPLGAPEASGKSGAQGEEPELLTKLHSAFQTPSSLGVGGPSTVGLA
testDescription: GloSensor cAMP assay at mouse GPR68
Format: cell-based
testContext: difference of Log(αβ/KB) at mouse GPR68 from the corresponding values at human GPR68
outcomeMeasure: Δ
// return a plain number; no unit text

Identify the reported Δ for the following entry. Nc1nc(NCCCc2ccccc2)nc(-c2cc(Cl)ccc2CO)n1
−0.40

Respond only with Δ recorded for Nc1nc(NCc2ccc(Cl)cc2)nc(-c2ccccc2CO)n1
−0.43

Indicate its recorded Δ; the compound in question is Nc1nc(NCCc2ccccc2)nc(-c2cc(Cl)ccc2CO)n1
−0.34

Determine from records and report Δ for Nc1nc(NCc2ccccc2)nc(-c2ccccc2CO)n1
−0.34

###

targetSystem: human GPR68 (Homo sapiens)
testDescription: GloSensor cAMP assay, proton-mediated Gs-cAMP production at human GPR68
Type: cell-based
testContext: allosteric binding affinity from functional assay; human GPR68; mean ± SEM
outcomeMeasure: −Log (KB)

# example entries with known answers
CC(=O)c1cccc(-c2nc(N)nc(NCc3ccccc3)n2)c1 [Compound 21]
Inactive
COc1cccc(CO)c1-c1nc(N)nc(NCc2ccccc2)n1 [Compound 32]
Weak PAM
Nc1nc(NCc2ccccc2)nc(-c2cccc(CO)c2)n1 [Compound 20]
Inactive
CNCc1ccccc1-c1nc(N)nc(NCc2ccccc2)n1 [Compound 19]
Weak PAM
Nc1nc(NCc2ccccc2)nc(-c2ccccc2)n1 [Compound 13]
Inactive

Then this compound:
// fetch −Log (KB) given entry CC(=O)c1ccccc1-c1nc(N)nc(NCc2ccccc2)n1 [Compound 15]
Weak PAM

###

targetSystem: human GPR68 (Homo sapiens)
testDescription: GloSensor cAMP assay, proton-mediated Gs-cAMP production at human GPR68
Assay type: cell-based
testContext: affinity cooperativity; human GPR68, HEK293T, Gs-cAMP; mean ± SEM
outcomeMeasure: Log (α)

CN(C)c1nc(NCc2ccccc2)nc(-c2ccccc2CO)n1 [Compound 7]
Inactive
CC(=O)c1cccc(-c2nc(N)nc(NCc3ccccc3)n2)c1 [Compound 21]
Inactive
CC(=O)c1ccccc1-c1nc(N)nc(NCc2ccccc2)n1 [Compound 15]
Weak PAM
Nc1nc(NCc2ccccc2)nc(-c2ccccc2)n1 [Compound 13]
Inactive

Look up Log (α) of COc1cccc(CO)c1-c1nc(N)nc(NCc2ccccc2)n1 [Compound 32] and report it.
Weak PAM

###

targetSystem: A2A receptors (Homo sapiens, UniProt P29274)
Sequence (P29274 whole entry): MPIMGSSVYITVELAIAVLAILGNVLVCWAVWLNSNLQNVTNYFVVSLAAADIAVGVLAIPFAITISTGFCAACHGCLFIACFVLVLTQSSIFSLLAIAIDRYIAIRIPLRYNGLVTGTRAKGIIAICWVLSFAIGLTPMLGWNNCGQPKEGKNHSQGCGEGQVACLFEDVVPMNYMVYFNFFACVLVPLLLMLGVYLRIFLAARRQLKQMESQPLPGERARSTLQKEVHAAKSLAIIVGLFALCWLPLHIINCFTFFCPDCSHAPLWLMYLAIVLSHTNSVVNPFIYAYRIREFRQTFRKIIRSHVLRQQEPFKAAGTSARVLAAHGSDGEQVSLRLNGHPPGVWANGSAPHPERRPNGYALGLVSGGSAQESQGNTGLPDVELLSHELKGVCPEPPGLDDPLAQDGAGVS
testDescription: Functional assay at A2A receptors
outcomeMeasure: pEC50
For clarity, pEC50 is expressed as the negative log10 of concentration in mol/L.

// fetch pEC50; item: Nc1nc(NCc2ccc(Cl)cc2)nc(-c2ccccc2CO)n1 ; system: A2A receptors (Homo sapiens, UniProt P29274)
5.77

###

targetSystem: human GPR68 (Homo sapiens)
testDescription: GloSensor cAMP assay, proton-mediated Gs-cAMP production at human GPR68
Format: cell-based
Simple rule here: Kb less than 40 µM is True, otherwise False.

Nc1nc(NCCc2ccc(Oc3ccccc3)cc2)nc(-c2cc(Cl)ccc2CO)n1
True
Nc1nc(NCCCCc2ccccc2)nc(-c2cc(Cl)ccc2CO)n1
True
Nc1nc(NCc2ccc(Oc3ccccc3)cc2)nc(-c2ccccc2CO)n1
True

Below 40 µM on Kb? Entry COc1ccc(CNc2nc(N)nc(-c3ccccc3CO)n2)cc1
False

Kb under 40 µM? Item: Nc1nc(NCc2ccc(F)cc2)nc(-c2c(F)cccc2CO)n1
True

In plain terms, does CC(C)Oc1ccc(-c2nc(N)nc(NCc3ccccc3)n2)c(CO)c1 come in under 40 µM for Kb?
True

###

targetSystem: human GPR68 (Homo sapiens, UniProt Q15743)
Sequence (Q15743 whole entry): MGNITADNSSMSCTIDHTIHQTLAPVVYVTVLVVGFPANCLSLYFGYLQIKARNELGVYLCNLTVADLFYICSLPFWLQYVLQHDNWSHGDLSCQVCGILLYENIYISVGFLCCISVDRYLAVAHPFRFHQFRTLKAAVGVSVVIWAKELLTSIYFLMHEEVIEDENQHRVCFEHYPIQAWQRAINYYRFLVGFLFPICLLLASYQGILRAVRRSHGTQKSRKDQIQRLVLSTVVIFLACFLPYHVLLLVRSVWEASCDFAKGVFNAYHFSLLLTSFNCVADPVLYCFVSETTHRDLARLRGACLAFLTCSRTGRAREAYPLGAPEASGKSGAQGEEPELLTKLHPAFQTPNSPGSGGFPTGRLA
testDescription: GloSensor cAMP assay, proton-mediated Gs-cAMP production at human GPR68
Format: cell-based
testContext: difference of Log(αβ/KB) from that of 1; human GPR68
outcomeMeasure: Δ

COc1cccc(CO)c1-c1nc(N)nc(NCc2ccccc2)n1
Weak PAM
CC(=O)c1ccccc1-c1nc(N)nc(NCc2ccccc2)n1
Weak PAM
CNCc1ccccc1-c1nc(N)nc(NCc2ccccc2)n1
Weak PAM

###

targetSystem: human GPR68 (Homo sapiens)
testDescription: GloSensor cAMP assay, proton-mediated Gs-cAMP production at human GPR68
Assay type: cell-based
The compounds listed here are annotated with their Kb.
The figure you give is taken to be in µM; do not add the unit.

Nc1nc(NCCCc2ccc(Oc3ccccc3)cc2)nc(-c2c(F)cccc2CO)n1
11.5

Quote Kb reported for Nc1nc(NCc2ccc(Oc3ccccc3)cc2)nc(-c2cc(Cl)ccc2CO)n1 please.
20

Using the record for COc1cccc(-c2nc(N)nc(NCc3ccccc3)n2)c1CO , state its measured Kb.
69.2

Return Kb (reported value) for this compound: Nc1nc(NCc2ccccc2)nc(-c2cccc(F)c2CO)n1
97.7

Input Nc1nc(NCc2ccc(F)cc2)nc(-c2ccccc2CO)n1 , output reported Kb.
107

For the compound Cc1ccc(CNc2nc(N)nc(-c3ccccc3CO)n2)cc1 , give its reported Kb.
41.7

Please give the documented Kb of Nc1nc(NCc2ccccc2)nc(-c2c(F)cccc2CO)n1
204

Determine from records and report Kb for COc1ccccc1CNc1nc(N)nc(-c2c(F)cccc2CO)n1
77.6

Assign Kb to the following record: Nc1nc(NCc2ccc(OC3CC3)cc2)nc(-c2ccccc2CO)n1
8.51

Sourced from paper PMC6923801
